Where do the numbers come from? From the supplement of paper PMC9112550.

system: Escherichia coli TOP10; experiment: shrunken log2 fold change of peptide-encoding DNA abundance (4.5 h post-induction vs induction); higher = less antimicrobial activity (less host growth inhibition); conditions: time post-induction: 4.5 h; library: site-saturation at positions 5, 18, 19, 20;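 note: peptides expressed intracellularly from a pBAD plasmid library in pooled LB shake-flask culture, induced with 0.3% L-arabinose, DNA abundance read by NGS, three biological replicates, DESeq2 with apeglm shrinkage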
Could you please report measured shrunken log2 fold change for the items listed next?
Answers are plain numbers.

sequence-input: RRIRSRPPRLPRPRPRPGIIPRP
value: -0.454

For every record below, what is its shrunken log2 fold change?
1. RRIRSRPPRLPRPRPRPGMYPRP
2. RRIRQRPPRLPRPRPRPNPMPRP
3. RRIRLRPPRLPRPRPRPFVWPRP
4. RRIRIRPPRLPRPRPRPCMFPRP
5. RRIRNRPPRLPRPRPRPAFIPRP
6. RRIRMRPPRLPRPRPRPKTGPRP
7. RRIRNRPPRLPRPRPRPWGFPRP
8. RRIRDRPPRLPRPRPRPEVAPRP

0.0605
-0.00515
0.118
-0.738
-0.579
0.895
-0.103
0.563

For every record below, what is its shrunken log2 fold change?
1. RRIRFRPPRLPRPRPRPVSAPRP
2. RRIRMRPPRLPRPRPRPNIHPRP
3. RRIRDRPPRLPRPRPRPPCSPRP
4. RRIRSRPPRLPRPRPRPWGQPRP
5. RRIRPRPPRLPRPRPRPEQNPRP

1: 0.25; 2: -0.144; 3: 0.126; 4: 0.0926; 5: -0.199

Assign shrunken log2 fold change to the following record: RRIRMRPPRLPRPRPRPSEPPRP
0.33
